Data origin: patent US20250295799A1

# system-name: T1, recombinant human GPC3 (glypican-3) (human, UniProt P51654 25-559)
# T1 construct: also called huGPC3; hGPC3
# assay-notes: SPR (Biacore T200), antibody captured by anti-Fc, GPC3 injected
Label 0 (no) if Avg % binding huGPC3 (RU observed/theoretical) falls below 20%; label 1 (yes) in every other case.

As a guide, the following entries are already answered.
v40215, H18L6_LC_N33V mAb (antibody, human IgG1, kappa, V domains shown, no number given for this variant) VH: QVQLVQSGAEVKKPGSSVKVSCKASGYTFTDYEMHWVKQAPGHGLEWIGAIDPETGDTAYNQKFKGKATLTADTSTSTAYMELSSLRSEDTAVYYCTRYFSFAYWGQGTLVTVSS VL: EIVLTQSPATLSLSPGERATISCRSSQSLRHSVGNTYLQWYQQKPGQAPRLLIYKVSNRFSGVPARFSGSGSGTDFTLTISSLEPEDFAVYFCYQSKHVPYTFGGGTKVEIKR = 0 (no)
v40220, H18L6_LC_N33Q mAb (antibody, human IgG1, kappa, V domains shown, no number given for this variant) VH: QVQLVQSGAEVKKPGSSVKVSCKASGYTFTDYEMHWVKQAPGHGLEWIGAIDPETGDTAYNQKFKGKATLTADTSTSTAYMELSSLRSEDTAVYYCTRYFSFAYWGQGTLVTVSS VL: EIVLTQSPATLSLSPGERATISCRSSQSLRHSQGNTYLQWYQQKPGQAPRLLIYKVSNRFSGVPARFSGSGSGTDFTLTISSLEPEDFAVYFCYQSKHVPYTFGGGTKVEIKR = 0 (no)
v40212, H18L6_LC_G34A mAb (antibody, human IgG1, kappa, V domains shown, no number given for this variant) VH: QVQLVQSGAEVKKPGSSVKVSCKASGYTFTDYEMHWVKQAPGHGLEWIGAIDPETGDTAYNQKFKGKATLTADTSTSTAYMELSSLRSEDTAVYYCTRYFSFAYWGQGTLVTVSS VL: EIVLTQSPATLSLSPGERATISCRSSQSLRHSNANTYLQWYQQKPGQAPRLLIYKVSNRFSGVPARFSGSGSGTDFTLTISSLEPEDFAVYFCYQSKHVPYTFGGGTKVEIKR = 1 (yes)
v40213, H18L6_LC_N33E mAb (antibody, human IgG1, kappa, V domains shown, no number given for this variant) VH: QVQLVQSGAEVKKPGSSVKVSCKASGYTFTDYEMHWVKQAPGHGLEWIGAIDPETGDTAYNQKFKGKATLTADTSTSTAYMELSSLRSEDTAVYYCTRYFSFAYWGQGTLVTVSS VL: EIVLTQSPATLSLSPGERATISCRSSQSLRHSEGNTYLQWYQQKPGQAPRLLIYKVSNRFSGVPARFSGSGSGTDFTLTISSLEPEDFAVYFCYQSKHVPYTFGGGTKVEIKR = 0 (no)

Query binder follows.
Entry v40204, H18L6_LC_G34E mAb (antibody, human IgG1, kappa, V domains shown, no number given for this variant) VH: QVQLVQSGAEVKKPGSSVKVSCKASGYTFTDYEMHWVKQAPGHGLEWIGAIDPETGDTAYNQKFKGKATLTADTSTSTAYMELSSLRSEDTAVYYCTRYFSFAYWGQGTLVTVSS VL: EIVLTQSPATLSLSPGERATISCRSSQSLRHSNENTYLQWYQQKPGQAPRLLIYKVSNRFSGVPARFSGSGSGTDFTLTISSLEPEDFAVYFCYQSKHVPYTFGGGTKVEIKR : is its Avg % binding huGPC3 (RU observed/theoretical) no less than 20%?
1 (yes)
